All values here come from patent US8354403B2.

- assay-system: human β3 adrenergic receptor (Homo sapiens, UniProt P13945)
- Construct: expressed in transfected cells; host or cells: Chinese hamster ovary (CHO) cells, stably transfected
- Sequence (P13945 whole entry): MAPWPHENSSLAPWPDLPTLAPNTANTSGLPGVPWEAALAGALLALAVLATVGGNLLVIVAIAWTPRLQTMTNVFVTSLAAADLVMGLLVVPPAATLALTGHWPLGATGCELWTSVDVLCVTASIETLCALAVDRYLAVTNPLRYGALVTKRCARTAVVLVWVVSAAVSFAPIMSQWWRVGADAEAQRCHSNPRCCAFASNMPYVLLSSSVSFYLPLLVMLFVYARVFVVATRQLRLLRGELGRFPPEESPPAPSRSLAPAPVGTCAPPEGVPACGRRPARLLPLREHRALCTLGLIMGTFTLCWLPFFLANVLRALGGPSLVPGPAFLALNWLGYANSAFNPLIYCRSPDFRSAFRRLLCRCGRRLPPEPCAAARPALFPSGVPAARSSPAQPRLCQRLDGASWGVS
- assay-protocol: Beta-3 agonist in vitro functional assay: cAMP production (LANCE TR-FRET) in CHO cells stably transfected with the cloned β3 receptor
- Assay type: cell-based
- measurement-setup: Table 12; human β3 functional activity given as ranges; read-out: Human β3 agonist functional activity
pEC50: −log10 of the molar value.
Please respond with reported pEC50 for every item in the list.

Some solved cases for reference:
compound	pEC50
CCC1CC2(CCN(C(=O)c3ccc(CC4CCC(C(O)c5ccccc5)N4)cc3)CC2)C(=O)O1 (single isomer, unassigned) [Example 564]	8.00 to 9.00
CC1CC2(CCN(C(=O)c3ccc(CC4CCC(C(O)c5ccccc5)N4)cc3)CC2)C(=O)O1 (single isomer, unassigned) [Example 561]	8.00 to 9.00
O=C(c1ccc(CC2CCC(C(O)c3cccnc3)N2)cc1)N1CCC2(CC1)C(=O)NCC2c1ccc(F)cc1 (single isomer, unassigned) [Example 556]	8.00 to 9.00
O=C(c1ccc(CC2CCC(C(O)c3cccnc3)N2)cc1)N1CCC2(CC1)C(=O)NCC2c1ccc(F)cc1 (single isomer, unassigned) [Example 555]	8.00 to 9.00
CC(C)(C)C1CC2(CCN(C(=O)c3ccc(CC4CCC(C(O)c5ccccc5)N4)cc3)CC2)C(=O)O1 (single isomer, unassigned) [Example 569]	8.00 to 9.00
CC(c1nccs1)N1CCN(C(=O)c2ccc(CC3CCC(C(O)c4ccccc4)N3)cc2)CC1 (single isomer, unassigned) [Example 582]	7.00 to 8.00
O=C(c1ccc(CC2CCC(C(O)c3ccccc3)N2)cc1)N1CCN(C(c2ccccn2)C2CC2)CC1 (single isomer, unassigned) [Example 590]	8.00 to 9.00
O=C1OCCC1N1CCN(C(=O)c2ccc(CC3CCC(C(O)c4ccccc4)N3)cc2)CC1 (single isomer, unassigned) [Example 604]	8.00 to 9.00

Provide each entry's pEC50 from the list below.
1. CC(c1cscn1)N1CCN(C(=O)c2ccc(C[C@@H]3CC[C@H]([C@H](O)c4ccccc4)N3)cc2)CC1 (single isomer, unassigned) [Example 580]
2. O=C1CC(c2ccccc2)C2(CCN(C(=O)c3ccc(CC4CCC(C(O)c5cccnc5)N4)cc3)CC2)O1 (single isomer, unassigned) [Example 559]

Reply:
["7.00 to 8.00", "6.00 to 7.00"]
